# phage ELISA signal ratio listing for each entry below
# TARGET SYSTEM: T1, MDM4 26-106 SWIB (domain begin residue: 26, domain end residue: 106), O15151
# T1 chain: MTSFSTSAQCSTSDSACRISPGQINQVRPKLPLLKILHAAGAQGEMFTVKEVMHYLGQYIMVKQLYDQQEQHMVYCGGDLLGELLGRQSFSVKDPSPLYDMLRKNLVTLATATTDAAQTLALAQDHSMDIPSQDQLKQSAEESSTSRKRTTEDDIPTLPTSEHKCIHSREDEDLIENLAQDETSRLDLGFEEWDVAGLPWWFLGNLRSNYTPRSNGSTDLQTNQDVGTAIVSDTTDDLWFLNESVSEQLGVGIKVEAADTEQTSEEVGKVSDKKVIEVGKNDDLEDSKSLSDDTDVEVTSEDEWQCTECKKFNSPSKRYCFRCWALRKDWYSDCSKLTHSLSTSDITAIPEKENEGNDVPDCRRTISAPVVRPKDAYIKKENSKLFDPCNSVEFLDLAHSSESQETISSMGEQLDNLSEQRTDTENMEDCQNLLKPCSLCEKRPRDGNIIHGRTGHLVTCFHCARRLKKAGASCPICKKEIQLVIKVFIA
# ASSAY NOTES: phage ELISA signal ratio (GST-PRM binding over GST background); higher = stronger binding of peptide-phage to the PRM
// return just the number, without any unit appended

BINDER	phage ELISA signal ratio
FTAQDVLSHMSLWEFT	21.7
DFAWWWSQMLEAEVNF	12.3
TFSESWATLTSTSEWM	20.4
MPLFMDLWQDMMPTNY	17.9
KDFSMWWVELKEVEVS	17.4
DFMDFWEDATMGLVGT	21.7
KMELSFWEFWQVLQHE	18

Proceeding to the next binder to report its phage ELISA signal ratio.
Reported phage ELISA signal ratio for YDFSQYWDAIPEQFIV was 18.1
